Give IC50 for every item shown.
System: Plasmodium falciparum 3D7 (CQ-sensitive)
assayMethodText: In vitro antimalarial SYBR Green I fluorescence assay
Type: cell-based
settings: Plasmodium falciparum, 3D7, read-out: Pf 3D7 IC50 (side-by-side with CQ)
The response must be a number in nM with no trailing unit.

Entry C[C@H](NC(=O)[C@H]1CNC[C@@H]1c1ccc(C(F)(F)F)cc1)c1ccc(N(C)C)cc1 [54b] needs its IC50 filled in; supply it. 46

Using the record for CCN(CC)CCCC(C)Nc1ccnc2cc(Cl)ccc12 (centres unmarked) [chloroquine, reference compound] , state its measured IC50. 38

====

assayMethodText: Cytotoxicity selectivity
Format: cell-based
readout: selectivity ratio

Answer with the recorded selectivity ratio for the compound listed here: COc1ccc(CNC(=O)[C@@H]2CNC[C@H]2c2ccc(C(F)(F)F)cc2)cc1 (racemic) 100
